Test Target: SCD (rat liver microsome) (Rattus norvegicus, UniProt P07308)
Construct: an enzyme reaction using rat liver microsome (20 μg) was performed for 15 min; from tissue; host or cells: rat liver microsome fraction
Sequence (P07308 1-358): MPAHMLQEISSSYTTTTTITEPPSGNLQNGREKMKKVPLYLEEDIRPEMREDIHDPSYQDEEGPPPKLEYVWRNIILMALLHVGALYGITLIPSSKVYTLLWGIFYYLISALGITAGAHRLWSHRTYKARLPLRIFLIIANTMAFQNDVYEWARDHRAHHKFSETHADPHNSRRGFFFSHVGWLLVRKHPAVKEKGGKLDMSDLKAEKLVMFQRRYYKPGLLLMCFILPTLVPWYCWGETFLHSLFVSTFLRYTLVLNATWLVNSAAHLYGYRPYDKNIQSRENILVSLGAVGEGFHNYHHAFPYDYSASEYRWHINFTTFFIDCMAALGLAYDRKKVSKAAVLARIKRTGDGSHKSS
Test Summary: Measurement of SCD inhibitory activity using microsome (TLC detection system)
Format: biochemical
Condition Label: test compound 10 μM; rat liver microsome (20 μg), [14C] stearoyl-CoA, 15 min; read-out: SCD activity inhibitory rate (%)
Structures can show the parent of a compound that is named as a salt.
Reported Property: inhibition at 10 µM (%)

O=C(Nc1ccc(CO)cn1)N1CCOC(COc2cc(F)ccc2Cl)C1 (stereo not shown) ... 97
Cc1cc(C)nc(NC(=O)c2cc(COc3cc(Cl)ccc3Cl)ccn2)c1 ... 86
O=C(Nc1cnn(Cc2ccc(F)cc2)c1)c1ccc(Cn2cnc3ccccc32)cc1 ... 93
O=C(Nc1ccc(Cn2cccn2)cc1)c1ccnc(COc2cc(Cl)ccc2Cl)c1 ... 100
Cc1nn(Cc2ccccc2)c2sc(C(=O)Nc3ccc(Cn4cccn4)cc3)cc12 ... 86
O=C(Nc1ccc(Cn2cccn2)cc1)N1CCCC(COc2cc(Cl)ccc2Cl)C1 (stereo not shown) ... 85
CN(Cc1cccc(C(=O)Nc2cnn(Cc3ccc(F)cc3)c2)c1)c1ccccc1Cl ... 93
O=C(Nc1cnn(CCO)c1)c1cc(COc2ccccc2Cl)ccn1 ... 88
Cc1cc(C)nc(NC(=O)N2CCOC(COc3ccccc3F)C2)c1 (stereo not shown) [Example 59, trifluoroacetate] ... 88
Cc1cc(C)nc(NC(=O)c2ccc(Cn3cnc4ccccc43)cc2)c1 ... 97
O=C(Nc1cnn(Cc2ccc(F)cc2)c1)c1cccc(CNc2ccccc2Cl)c1 ... 99
NC(=O)c1ccsc1NC(=O)c1cccc(COc2cc(Cl)ccc2Cl)c1 ... 83
O=C(Nc1cnn(Cc2ccc(F)cc2)c1)c1cccc(COc2ccccc2)c1 ... 97

// data source = patent US20090325956A1
